Each recorded value in this set is attributed to patent US20230089368A1.

system: satellite-like cells (Pax7-positive cells) in hMP; assay: Myotube assay: Pax7-positive (satellite-like) cell quantification; type: cell-based, human; parameters: key: −: Depletes the pool of cells, while positively affects the myotubes; +: Maintains or increases the pool of cells, with at least 1 of the highest concentration known to be cytotoxic; ++: Maintains or increases the pool of cells, without any toxicity; settings: myotube assay, compounds incubated 3 days
reported endpoint: Pax7% (pool of Pax7-positive cells)

1. CSc1cc(Oc2ccnc(C(=O)Nc3ccccc3)c2)ccc1NC(=O)Nc1cc(C(C)(C)C)nn1-c1ccccc1 ... ++
2. CC(C)(C)c1cc(NC(=O)Nc2ccc(Oc3ccnc4[nH]c(=O)cnc34)cc2F)n(CCN2CCOCC2)n1 ... ++
3. CSc1cc(Oc2ccnc3[nH]c(=O)cnc23)ccc1NC(=O)Nc1cc(C(C)(C)C)nn1-c1ccc(CN(C)C)cc1 ... +
4. CSc1cc(Oc2ccnc(N)c2)ccc1NC(=O)Nc1cc(C(C)(C)C)nn1-c1ccccc1.Cl ... ++
5. CCOC(=O)Nc1cc(Oc2ccc(NC(=O)Nc3cc(C(C)(C)C)nn3-c3ccccc3)c3ccccc23)ccn1 ... +
6. CSc1cc(Oc2ccnc3[nH]c(=O)cnc23)ccc1NC(=O)Nc1nc(C(C)(C)C)cs1 ... ++
7. CSc1cc(Oc2ccnc(NC(=O)OC(C)(C)C)c2)ccc1NC(=O)Nc1cc(C(C)(C)C)nn1-c1ccccc1 ... ++
8. CSc1cc(Oc2ccnc3c2CCC(=O)N3)ccc1NC(=O)Nc1cc(C(C)(C)C)nn1-c1cccc(Cl)c1 ... +
9. CC(C)n1nc(C(C)(C)C)cc1NC(=O)Nc1ccc(Oc2ccnc3[nH]c(=O)cnc23)cc1F ... +
10. CCC(C)c1cc(NC(=O)Nc2ccc(Oc3ccnc4[nH]c(=O)cnc34)cc2F)n(-c2ccccc2)n1 (stereo not shown) ... +
11. CNCC(=O)Nc1cc(Oc2ccc(NC(=O)Nc3cc(C(C)(C)C)nn3-c3ccccc3)c(SC)c2)ccn1 ... +
12. CCSc1cc(Oc2ccnc3[nH]c(=O)cnc23)ccc1NC(=O)Nc1cc(C(C)(C)C)nn1-c1ccccc1 ... ++
13. CSc1cc(Oc2ccnc3[nH]c(=O)cnc23)ccc1NC(=O)Nc1nnc(C(C)(C)C)s1 [(z)] ... ++
14. CCOC(=O)Nc1cc(Oc2ccc(NC(=O)Nc3cc(C(C)(C)C)nn3-c3ccccc3)c(SC)c2)ccn1 ... +
15. CNC(=O)c1cc(Oc2ccc(NC(=O)Nc3cc(C(C)(C)C)nn3-c3ccccc3)c(SC)c2)ccn1 ... ++
16. COc1ccccc1-n1nc(C(C)(C)C)cc1NC(=O)Nc1ccc(Oc2ccnc3[nH]c(=O)cnc23)cc1SC ... ++
17. CSc1cc(Oc2ccnc3[nH]c(=O)cnc23)ccc1NC(=O)Nc1nnc(-c2ccccc2)s1 ... ++
18. CSc1cc(Oc2ccncc2)ccc1NC(=O)Nc1cc(C(C)(C)C)nn1-c1ccccc1 ... ++
19. CSc1cc(Oc2ccnc3[nH]c(=O)cnc23)ccc1NC(=O)Nc1nnc(C(C)(C)C)o1 ... +

* * *

tested on: satellite-like cells (Pax7-positive cells) in hMP; test: Myotube assay: Pax7-positive (satellite-like) cell quantification; type: cell-based, human; set-up: key: −: Depletes the pool of cells, while positively affects the myotubes; +: Maintains or increases the pool of cells, with at least 1 of the highest concentration known to be cytotoxic; ++: Maintains or increases the pool of cells, without any toxicity; conditions: myotube assay, compounds incubated 3 days
reported endpoint: Pax7% (pool of Pax7-positive cells)

1) CSc1cc(Oc2ncnc3[nH]c(=O)cnc23)ccc1NC(=O)Nc1cc(C(C)(C)C)nn1-c1ccccc1 [(bv)] ... ++
2) COc1cccc(-n2nc(C(C)(C)C)cc2NC(=O)Nc2ccc(Oc3ccnc4[nH]c(=O)cnc34)cc2SC)c1 [(aw)] ... +
3) CC(=O)Nc1cc(Oc2ccc(NC(=O)Nc3cc(C(C)(C)C)nn3-c3ccccc3)c3ccccc23)ccn1 [(dj)] ... +
